// data source = patent US7342005B2

Readings of MIC for the listed molecules
# System: Enterobacter cloacae 108
# PROTOCOL DESCRIPTION: MIC by agar-dilution, Diagnostic Sensitivity Test
# Assay type: cell-based
# CONDITION INFO: inoculum 10^4 CFU/spot
Only the number, expressed in µg/mL, is required.

Record excerpt, results attached:
# MOLECULE, TESTED TARGET, UNIT SPEC, MIC
records = [
    ("CC(O)C1C(=O)N2C(C(=O)O)=C(SC3CNC(C(=O)Nc4ccc(Cl)c(C(=O)O)c4)C3)C(C)[C@H]12 (stereo partly shown)", "Enterobacter cloacae 108", "µg/mL", 1.00),
    ("CC(O)C1C(=O)N2C(C(=O)O)=C(SC3CNC(C(=O)Nc4cccc(C(=O)O)c4)C3)C(C)[C@H]12 (stereo partly shown)", "Enterobacter cloacae 108", "µg/mL", 0.50),
    ("C[C@@H](O)[C@H]1C(=O)N2C(C(=O)O)=C(S[C@@H]3CN[C@H](C(=O)Nc4cc(O)cc(C(=O)O)c4)C3)[C@H](C)[C@H]12", "Enterobacter cloacae 108", "µg/mL", 1.00),
]

The record that follows has no MIC shown yet.
## Task Please report the recorded MIC for "C[C@@H](O)[C@H]1C(=O)N2C(C(=O)O)=C(S[C@@H]3CN[C@H](C(=O)Nc4ccc(O)c(C(=O)O)c4)C3)[C@H](C)[C@H]12" .
## Result 0.25
